- TGT: androgen receptor (rat ventral prostate cytosol) (Rattus norvegicus, UniProt P15207)
- Construct: from tissue; host or cells: ventral prostate of castrated male Sprague Dawley or Wistar rats, cytosol
- Sequence (P15207 1-902): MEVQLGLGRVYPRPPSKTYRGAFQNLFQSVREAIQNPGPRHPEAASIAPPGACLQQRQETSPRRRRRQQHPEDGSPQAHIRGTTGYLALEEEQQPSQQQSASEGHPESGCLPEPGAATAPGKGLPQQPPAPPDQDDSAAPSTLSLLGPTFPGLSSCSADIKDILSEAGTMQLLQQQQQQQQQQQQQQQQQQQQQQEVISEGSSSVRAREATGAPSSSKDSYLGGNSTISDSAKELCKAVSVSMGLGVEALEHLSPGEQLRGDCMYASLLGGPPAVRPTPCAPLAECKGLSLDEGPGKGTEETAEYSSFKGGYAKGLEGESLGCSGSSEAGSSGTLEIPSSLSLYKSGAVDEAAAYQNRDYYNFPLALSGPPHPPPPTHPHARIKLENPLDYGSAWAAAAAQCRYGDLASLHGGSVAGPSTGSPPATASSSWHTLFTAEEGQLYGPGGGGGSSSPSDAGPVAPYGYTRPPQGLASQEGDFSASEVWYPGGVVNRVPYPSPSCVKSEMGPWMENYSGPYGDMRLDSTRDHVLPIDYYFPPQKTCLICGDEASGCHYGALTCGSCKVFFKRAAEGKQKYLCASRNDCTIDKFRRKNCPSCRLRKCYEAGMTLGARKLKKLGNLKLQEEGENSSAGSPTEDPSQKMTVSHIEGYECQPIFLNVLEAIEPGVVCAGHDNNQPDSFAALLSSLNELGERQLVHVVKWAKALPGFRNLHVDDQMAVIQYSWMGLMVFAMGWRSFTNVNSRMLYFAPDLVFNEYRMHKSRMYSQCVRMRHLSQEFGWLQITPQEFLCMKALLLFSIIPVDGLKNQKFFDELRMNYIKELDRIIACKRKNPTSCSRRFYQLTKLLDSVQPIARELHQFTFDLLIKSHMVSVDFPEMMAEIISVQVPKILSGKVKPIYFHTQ
- PROTOCOL DETAILS: Androgen Receptor Binding Using Rat Ventral Prostate Cytosol
- RUN CONDITIONS: rat cytosol; concentration 1000 nM
ASSAY METRIC: inhibition at 1 µM (%)
Answers are plain numbers, in %.

Worked examples follow.
>  <COMPOUND>
CS(=O)(=O)n1c(C2(O)CCN(Cc3ccccc3)CC2)cc2cc(Cl)c(C(F)(F)F)cc21

>  <UNIT ABBREVIATION>
%

>  <inhibition at 1 µM>
-41.5

$$$$
>  <COMPOUND>
OC1(c2cc3cc(Cl)c(C(F)(F)F)cc3[nH]2)CCN(Cc2ccc(C(F)(F)F)cc2)CC1

>  <UNIT ABBREVIATION>
%

>  <inhibition at 1 µM>
11

$$$$
>  <COMPOUND>
CS(=O)(=O)c1ccc(CN2CCC(O)(c3cc4cc(Cl)c(C(F)(F)F)cc4[nH]3)CC2)cc1

>  <UNIT ABBREVIATION>
%

>  <inhibition at 1 µM>
18

$$$$

Hello, I would appreciate it if you could give inhibition at 1 µM for each entry below.
1. Cc1ccc(CN2CCC(O)(c3cc4cc(Cl)c(C(F)(F)F)cc4[nH]3)CC2)cc1
2. OC1(c2cc3cc(Cl)c(C(F)(F)F)cc3[nH]2)CCN(Cc2ccc(Cl)c(Cl)c2)CC1
3. CC(O)(COC(=O)c1ccc(Cl)cc1)c1cc2cc(Cl)c(C(F)(F)F)cc2[nH]1 (centres unmarked)
4. CS(=O)(=O)n1c(C2(O)CCNCC2)cc2cc(Cl)c(C(F)(F)F)cc21
5. OC1(c2cc3cc(Cl)c(C(F)(F)F)cc3[nH]2)CCN(Cc2ccc(F)cc2)CC1

Reply text:
-7.7
-34
69
-1.5
-3.4
